- Study target: T1, human PCSK9 (human, UniProt Q8NBP7 31-692, limits assumed)
- T1 construct: also called hPCSK9; huPCSK9
- T1 sequence (Q8NBP7 31-692 limits assumed): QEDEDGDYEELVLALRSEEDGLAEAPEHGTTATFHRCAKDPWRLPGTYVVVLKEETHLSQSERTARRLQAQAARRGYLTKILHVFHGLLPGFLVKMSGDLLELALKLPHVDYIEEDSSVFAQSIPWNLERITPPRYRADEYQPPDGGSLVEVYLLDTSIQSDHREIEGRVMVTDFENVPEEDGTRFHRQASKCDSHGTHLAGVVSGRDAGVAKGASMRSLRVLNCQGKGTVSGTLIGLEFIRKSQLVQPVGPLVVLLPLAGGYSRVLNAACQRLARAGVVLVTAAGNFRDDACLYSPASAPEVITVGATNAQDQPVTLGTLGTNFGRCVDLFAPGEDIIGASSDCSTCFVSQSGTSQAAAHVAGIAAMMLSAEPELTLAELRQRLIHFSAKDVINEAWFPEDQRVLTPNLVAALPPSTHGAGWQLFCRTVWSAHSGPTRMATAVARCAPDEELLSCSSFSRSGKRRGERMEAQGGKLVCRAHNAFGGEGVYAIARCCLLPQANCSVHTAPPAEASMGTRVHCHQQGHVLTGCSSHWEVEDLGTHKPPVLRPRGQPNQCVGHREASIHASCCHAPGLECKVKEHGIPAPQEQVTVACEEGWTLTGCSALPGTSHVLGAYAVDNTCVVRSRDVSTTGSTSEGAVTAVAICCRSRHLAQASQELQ
- Measurement protocol: SPR Biacore 3000, captured IgG, hPCSK9 injected, pH 7.4
Experimental readout: pKd
Lab note — pKd values are minus log10 of concentrations in M.

Request: Would you mind telling me what pKd value was observed for 5L1724H23_6L3 (antibody, V domains shown, Only CDRs printed; Full-length IgG) VH: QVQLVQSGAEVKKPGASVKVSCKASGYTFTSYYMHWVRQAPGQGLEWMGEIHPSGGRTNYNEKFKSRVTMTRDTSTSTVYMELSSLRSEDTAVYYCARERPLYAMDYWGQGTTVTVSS VL: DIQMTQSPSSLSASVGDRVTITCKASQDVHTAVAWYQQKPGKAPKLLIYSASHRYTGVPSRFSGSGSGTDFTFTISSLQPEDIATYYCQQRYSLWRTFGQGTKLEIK ?
Response: 7.66

All values here come from patent US20150266974A1.
